assay-details: in vitro
settings: human, hela cells, % viability
observation-type: viability at 28.5 h, 10 µM (%)

| compound | observation-type | observed-value |
| --- | --- | --- |
| CCC1(C)CC(=O)c2cc(NC(=O)N(CCO)CCO)ccc2O1 (stereo not drawn) | viability at 28.5 h, 10 µM | 116 |
| Cc1nc(-c2ccccc2)sc1CNC(=O)/C=C\C(=O)Nc1ccc(F)cc1 | viability at 28.5 h, 10 µM | 96.2 |
| Cc1c(C(=O)CCN(C)C2CC=C(c3ccc(F)cc3)CC2)cnn1CCO (stereo not drawn) | viability at 28.5 h, 10 µM | 90.4 |
| CCN1C(=O)CC2(C1=O)C(=O)N(CCc1cccs1)c1ccc(Cl)cc12 (stereo not drawn) | viability at 28.5 h, 10 µM | 106 |
| Cc1nsc2c1[C@H]1[C@H](O)[C@H](O)C[C@H]1C1(CCC1)N2 | viability at 28.5 h, 10 µM | 100 |
| O=C(c1ccco1)N1CCN(c2ccc(-c3cccc4cccnc34)cn2)CC1 | viability at 28.5 h, 10 µM | 72.4 |
| N#Cc1ccc(CN2CCN(S(=O)(=O)c3ccc(-c4ccccc4)cc3)CC2)cc1 | viability at 28.5 h, 10 µM | 105 |
| Cc1cc(C)n(CC2CCCN2C(=O)CCCc2ccccn2)n1 (stereo not drawn) | viability at 28.5 h, 10 µM | 105 |
| O=C(Cc1cccc2ccccc12)NC(=S)Nc1cccc(C(=O)O)c1 | viability at 28.5 h, 10 µM | 90.7 |

====

assay-details: in vitro
settings: human, hela cells, % viability
Threshold 90%. viability at 28.5 h, 10 µM below it: true. viability at 28.5 h, 10 µM at it or above: false.

| compound | class-label |
| --- | --- |
| COc1cc2c(cc1OC)C(C)N(C(=O)Nc1ccc3c(c1)OCCO3)CC2 (stereo not drawn) [CBK086204] | false |
| O=c1nc2c(cn1[C@H]1C[C@@H](O)[C@@H](CO)O1)Sc1ccccc1N2 [CBK201237] | false |
| c1ccc(N2CCN(c3cccc(-c4ccco4)n3)CC2)nc1 [CBK037662] | false |
| CCCSc1ccc2[nH]c(NC(=O)CSc3nc[nH]n3)nc2c1 [CBK270181] | true |
| O=C(c1ccccc1Cl)c1cc(Cl)ccc1-n1ccnc1 [CBK005151] | false |
| O=C1OC(c2ccc(N3C(=O)c4cccc5cccc(c45)C3=O)cc2)(c2ccc(N3C(=O)c4cccc5cccc(c45)C3=O)cc2)c2ccccc21 [CBK261845] | false |
| Cc1[nH]c2c(C)cccc2c1CC(=O)N(C)CCN(C)C [CBK282724] | true |
| O=C(Nc1nnc(-c2ccncc2)o1)c1ccc(F)cc1 [CBK287431] | true |

====

assay-details: in vitro
settings: human, hela cells, % viability

| compound | viability at 28.5 h, 10 µM, % |
| --- | --- |
| CC(NC(=O)C1CC(=O)OC1(C)C)c1ccc2c(c1)CCCO2 (centres unmarked) | 88.4 |
| COC(=O)CNC(=O)c1ccc(S(=O)(=O)N2CCOCC2)cc1 | 109 |
| CS(=O)(=O)Nc1cccc(C2=NN(S(=O)(=O)c3ccc(Cl)cc3)C(c3ccccc3F)C2)c1 (centres unmarked) | 114 |
| CN1CCN(CCC(=O)N/N=C/c2cccc(Br)c2)CC1 | 96.6 |
| O=C(O)/C(=C\c1ccccc1)NC(=O)c1cccc([N+](=O)[O-])c1 | 96.3 |
| CN(C)CC1CCCCN1C(=O)[C@@H]1C[C@@H]2C=C[C@H]1C2 (some centres unmarked) | 105 |
| COc1ccc(Sc2nc(SC)nc(-c3ccccc3)c2C#N)cc1 | 94 |
| O=C(NCc1ccco1)C1CCN(c2nccc(C(F)(F)F)n2)CC1 | 105 |
| COC(=O)CCc1ccc(S(=O)(=O)N2CCCN(Cc3ccc4c(c3)OCO4)CC2)cc1 | 106 |
| Cc1noc(NS(=O)(=O)c2ccc(NC(=O)COc3ccc(Cl)cc3Cl)cc2)c1C | 89.3 |
| Cc1cccn2cc(CC(=O)NC3(C#N)CCCCC3)nc12 | 95.2 |
| CCCc1[nH]nc(O)c1C(=O)c1c(Cl)cccc1Cl | 95.7 |
| Cc1ccc(-c2cncc(NCc3cccs3)n2)cc1C | 106 |
| O=C(Nc1ccc(F)cc1)c1c(NS(=O)(=O)Cc2ccccc2[N+](=O)[O-])sc2c1CCCC2 | 85.3 |
| C#C[C@H]1C[N@@]2CC[C@H]1C[C@@H]2CNC(=O)Nc1cccc(C#N)c1 | 97.2 |
| C/C(=N\N=C1\N=C(O)C(CC(=O)NCc2ccccc2)S1)c1ccco1 (centres unmarked) | 89.9 |
| CC(=O)c1cccc(NC(=O)CCCn2cc([N+](=O)[O-])cn2)c1 | 82.8 |
| NCc1cnc2c(c1)CCC2 [CBK018584G] | 90.8 |
| CS(=O)(=O)N1CC2CCCC(O)(c3cccc(F)c3)C2C1 (centres unmarked) | 97.3 |
| O=C(O)C(=N\Nc1ccccc1)/C(=N/Nc1ccccc1)C(=O)O [CBK278303N] | 100 |
| CCCCC(NS(=O)(=O)Cc1ccccc1)C(=O)O (centres unmarked) | 91.1 |
| O=[N+]([O-])c1ccccc1S(=O)(=O)Nc1ccc(S(=O)(=O)Nc2ncccn2)cc1 | 109 |
| Oc1ccc(/C=N/N=C/c2ccc(O)c(O)c2)cc1O | 95 |
| COc1ccc(-c2cnc(N)c(NCC(C)C)n2)c(OC)c1OC | 95.4 |
| O=C(O)C[C@@H]1CCN(C(=O)Nc2ccccc2)C[C@@H]1CCN1CCCCC1 | 110 |
| CN(CC#CCN1CCCC1)C(=O)CNC(=O)OC(C)(C)C | 111 |
| N#Cc1cc(CN2CCCN(S(=O)(=O)c3ccc(C(=O)c4ccccc4)cc3)CC2)ccc1F | 109 |
| COc1ccc([C@@]23CC[C@@H](NC(=O)c4ccc(Br)c(C)c4)C[C@@H]2N(C)CC3)cc1OC [CBK076656T] | 81.2 |
| CCOC(=O)C1CCCN(CCC(=O)Nc2cc(C)cc(C)c2)C1 (centres unmarked) | 100 |
| CCC(C)(C)c1ccc(S(=O)(=O)NCC2CC2)cc1 | 93 |
| O=C(CSc1n[nH]c(=S)s1)NCCc1ccccc1 | 99.2 |
| O=C(C(c1ccccc1)c1ccccc1)N1CCC2(CCNC2)C1 (centres unmarked) [CBK156729C] | 92.3 |
| Cc1ccc(O)c(NC(=O)c2ccccc2-c2ccccc2C(=O)O)c1 | 82.9 |
| O=S(=O)(Nc1nnn[nH]1)c1ccc(-c2ccon2)s1 | 97.7 |
| CCn1ncc(CN2C3CCC2CC(O)(c2ccccc2F)C3)c1C (centres unmarked) | 85 |
| O=S(=O)(c1ccc2c(c1)nc1n2CCC1)N1CCOCC1 | 49.6 |
| O=C(O)CCC1=C2c3ccccc3CCN2C(=O)CC1 | 108 |
| CCOC(=O)c1cnn2c(O)cc(CN3CCCCC3)nc12 | 101 |
